Test system: K562
assay details: Cytotoxicity against human K562 cells by MTT assay
Assay type: cell-based
measured property: log10 of IC50 (log10 of the value in nM)

| compound | target desc | log10 of IC50 |
| --- | --- | --- |
| Cc1c(CNCC[C@@H]2CCCN3CCCC[C@H]23)cc(-c2ccccc2)n1Nc1ccnc2cc(Cl)ccc12 | K562 | 3.42 |
| CCN(CC)CCCC(C)Nc1ccnc2cc(Cl)ccc12 (stereo not given) [CHLOROQUINE] | K562 | 4.46 |
| CCN(CC)Cc1cc(-c2ccccc2)n(Nc2ccnc3cc(Cl)ccc23)c1C | K562 | 3.56 |
| Cc1c(CN2CCCC2)cc(-c2ccccc2)n1Nc1ccnc2cc(Cl)ccc12 | K562 | 3.47 |
| Cc1c(CNC[C@@H]2CCCN3CCCC[C@H]23)cc(-c2ccccc2)n1Nc1ccnc2cc(Cl)ccc12 | K562 | 3.23 |

---

assay details: Ratio of IC50 for chloroquine-resistant Plasmodium falciparum W2 to IC50 for chloroquine-sensitive Plasmodium falciparum D10
Assay type: functional
Assign labels as follows, please: met for Ratio IC50 below 2; not met for Ratio IC50 equal to or exceeding 2.

| chemical smiles | assigned class |
| --- | --- |
| Cc1cc(CNC[C@@H]2CCCN3CCCC[C@H]23)c(C)n1Nc1ccnc2cc(Cl)ccc12 | met |
| CCN(CC)Cc1ccc(Nc2ccnc3cc(Cl)ccc23)cc1O | met |
| CCN(CC)Cc1cc(C)n(Nc2ccnc3cc(Cl)ccc23)c1C | not met |
| Cc1cc(CNC(C)(C)C)c(C)n1Nc1ccnc2cc(Cl)ccc12 | not met |
| Cc1c(CNCC[C@@H]2CCCN3CCCC[C@H]23)cc(-c2ccccc2)n1Nc1ccnc2cc(Cl)ccc12 | not met |
| Cc1c(CN2CCCC2)cc(-c2ccccc2)n1Nc1ccnc2cc(Cl)ccc12 | not met |
| CCN(CC)Cc1cc(-c2ccccc2)n(Nc2ccnc3cc(Cl)ccc23)c1C | met |
| Oc1cc(Nc2ccnc3cc(Cl)ccc23)ccc1CNCCC12CCCN1CCC2 | met |
| Oc1cc(Nc2ccnc3cc(Cl)ccc23)ccc1CNCC12CCCN1CCC2 | met |
| Cc1c(CNC[C@@H]2CCCN3CCCC[C@H]23)cc(-c2ccccc2)n1Nc1ccnc2cc(Cl)ccc12 | not met |
| Cc1cc(CNCC23CCCN2CCC3)c(C)n1Nc1ccnc2cc(Cl)ccc12 | met |
| Clc1ccc2c(Nc3ccc(CNC[C@@H]4CCCN5CCCC[C@H]45)c(Cl)c3)ccnc2c1 | met |
| Cc1c(CN2CCCC2)cc(-c2ccc(Cl)cc2)n1Nc1ccnc2cc(Cl)ccc12 | met |
| CCN(CC)Cc1cc(-c2ccc(Cl)cc2)n(Nc2ccnc3cc(Cl)ccc23)c1C | met |
| Cc1c(CNC(C)(C)C)cc(-c2ccccc2)n1Nc1ccnc2cc(Cl)ccc12 | not met |
| Cc1cc(CN2CCCC2)c(C)n1Nc1ccnc2cc(Cl)ccc12 | not met |
